target: Nuclear factor erythroid 2-related factor 2 (Mus musculus) (UniProt Q60795); test: Activation of NRF2 in mouse MLE12 cells assessed as induction of HMOX1 expression at 10 uM incubated for 6 hrs by immunoblot assay; assay type: cell-based
Sequence (Q60795 whole entry): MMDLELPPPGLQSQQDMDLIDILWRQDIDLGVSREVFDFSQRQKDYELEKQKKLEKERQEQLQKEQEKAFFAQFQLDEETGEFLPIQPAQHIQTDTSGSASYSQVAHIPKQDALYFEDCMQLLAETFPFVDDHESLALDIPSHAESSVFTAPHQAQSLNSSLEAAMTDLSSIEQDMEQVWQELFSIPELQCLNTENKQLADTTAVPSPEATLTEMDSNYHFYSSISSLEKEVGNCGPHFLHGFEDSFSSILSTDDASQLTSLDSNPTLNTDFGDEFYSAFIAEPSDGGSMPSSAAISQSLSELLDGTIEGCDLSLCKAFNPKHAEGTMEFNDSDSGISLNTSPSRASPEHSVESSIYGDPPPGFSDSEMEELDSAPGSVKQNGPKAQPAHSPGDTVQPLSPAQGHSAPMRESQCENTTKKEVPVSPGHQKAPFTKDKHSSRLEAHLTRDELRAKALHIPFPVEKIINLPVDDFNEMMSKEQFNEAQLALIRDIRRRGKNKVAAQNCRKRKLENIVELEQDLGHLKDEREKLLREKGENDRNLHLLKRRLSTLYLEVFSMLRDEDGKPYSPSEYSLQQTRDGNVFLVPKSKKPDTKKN
The source made the active and inactive calls. No cut-off for these calls is given here.
Labels: TRUE for active, FALSE for inactive

| SMILES_INPUT | ASSIGNED_CLASS |
| --- | --- |
| COc1ccc(S(=O)(=O)Nc2ccc(N(CC(=O)O)S(=O)(=O)c3ccc(OC)cc3)c3ccccc23)cc1 | FALSE |
| CCOC(=O)CN(c1ccc(NS(=O)(=O)c2ccc(OC)cc2)c2ccccc12)S(=O)(=O)c1ccc(OC)cc1 | TRUE |
| COc1ccc(S(=O)(=O)N(CC(=O)O)c2ccc(N(CC(=O)O)S(=O)(=O)c3ccc(OC)cc3)c3ccccc23)cc1 | TRUE |
| COc1ccc(S(=O)(=O)Nc2ccc(NS(=O)(=O)c3ccc(OC)cc3)c3ccccc23)cc1 | TRUE |
